These measurements were taken from ChEMBL document CHEMBL2057106.

protocol: Agonist activity at mGlu4a receptor assessed as inhibition of forskolin-stimulated cAMP production
Format: functional, Homo sapiens
Recorded pEC50 by entry
Scale explanation: pEC50 corresponds to minus log10 of a concentration expressed in moles per litre.

- molecule: "N[C@@H](CCP(=O)(O)O)C(=O)O"
  outcome-measure: "pEC50"
  observed: 6.37

Continue with the next molecule.
Need pEC50, item N[C@]1(C(=O)O)C[C@H]1CP(=O)(O)O (racemic)
5.10

----------
test-system: Metabotropic glutamate receptor 4 (Rattus norvegicus)
Sequence (P31423 whole entry): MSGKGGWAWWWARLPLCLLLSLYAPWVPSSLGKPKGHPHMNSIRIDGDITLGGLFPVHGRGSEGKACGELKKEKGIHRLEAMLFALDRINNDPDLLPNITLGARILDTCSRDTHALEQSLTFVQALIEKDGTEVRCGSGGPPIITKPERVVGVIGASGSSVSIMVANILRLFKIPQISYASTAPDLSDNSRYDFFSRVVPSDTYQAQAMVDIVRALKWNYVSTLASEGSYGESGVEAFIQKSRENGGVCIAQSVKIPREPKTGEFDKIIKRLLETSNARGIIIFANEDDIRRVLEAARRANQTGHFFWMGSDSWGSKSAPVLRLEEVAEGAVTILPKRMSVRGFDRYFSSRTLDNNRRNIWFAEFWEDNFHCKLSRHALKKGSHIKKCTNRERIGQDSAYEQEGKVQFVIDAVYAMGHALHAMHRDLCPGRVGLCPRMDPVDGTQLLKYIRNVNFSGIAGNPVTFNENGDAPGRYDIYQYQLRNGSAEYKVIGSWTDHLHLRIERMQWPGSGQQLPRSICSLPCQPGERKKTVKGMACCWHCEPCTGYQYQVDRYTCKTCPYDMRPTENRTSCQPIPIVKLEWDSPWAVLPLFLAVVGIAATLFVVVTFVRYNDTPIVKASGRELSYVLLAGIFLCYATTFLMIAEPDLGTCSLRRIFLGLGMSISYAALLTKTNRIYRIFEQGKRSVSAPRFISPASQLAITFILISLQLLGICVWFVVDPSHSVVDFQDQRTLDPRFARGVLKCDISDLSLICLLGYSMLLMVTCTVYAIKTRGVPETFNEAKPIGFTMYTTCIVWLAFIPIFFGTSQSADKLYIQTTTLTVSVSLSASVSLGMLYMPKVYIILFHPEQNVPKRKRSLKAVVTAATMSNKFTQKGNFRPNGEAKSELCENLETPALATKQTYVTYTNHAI
protocol: Agonist activity at rat mGlu4 receptor expressed in HEK293 cells coexpressing Gq/Gi and EAAC1 assessed as intracellular calcium production measured every 1.5 secs for 60 secs by Fluo-4-AM based fluorometry
Recorded pEC50 by entry
Scale explanation: pEC50 corresponds to minus log10 of a concentration expressed in moles per litre.

Past entries and their recorded results:
- molecule: "N[C@]1(C(=O)O)C[C@@]1(F)CS(=O)(=O)O (racemic)"
  pEC50: 4.07
- molecule: "N[C@]1(C(=O)O)C[C@@]1(F)CC(=O)O (racemic)"
  pEC50: 3.33

Need pEC50, item N[C@]1(C(=O)O)C[C@@]1(F)CCC(=O)O (racemic)
3.22

Likewise for N[C@@]1(C(=O)O)C[C@@]1(F)C(O)P(=O)(O)O (mixture of isomers) ?
2.85

Likewise for `N[C@@H](CCC(=O)O)C(=O)O` ?
5.54

Likewise for N[C@]1(C(=O)O)C[C@@]1(F)CP(=O)(O)O (racemic) ?
6.47
